System: Fibroblast
test_summary: Multiplex assay against human fibroblast
Assay type: toxicity, cell-based
applied_conditions: 12 h, 10 µM, compound concentration 10 uM, replicate 2
Population Pyknosed Nuclei (%) values, listed per item
measure: Population Pyknosed Nuclei (%)

[[record]]
record_smiles = "CCCCCCNC(=O)Nc1ccc(S(=O)(=O)Nc2ccc(CCNC[C@H](O)COc3ccc(O)cc3)cc2)cc1"
tested_on = "Fibroblast"
result = "17%"

[[record]]
record_smiles = "CC(C)(C)c1ccc(CSc2cnn(C(C)(C)C)c(=O)c2Cl)cc1"
tested_on = "Fibroblast"
result = "25%"

[[record]]
record_smiles = "Cc1cc(NC(=O)NCCN2CCC(O)(Cc3ccccc3)CC2)c2ccccc2n1"
tested_on = "Fibroblast"
result = "22%"

[[record]]
record_smiles = "COc1cc2nc(N3CCN(C(=O)COc4c(OC)cccc4C(C)C)CC3)nc(N)c2cc1OC.Cl.Cl"
tested_on = "Fibroblast"
result = "30%"

[[record]]
record_smiles = "C[C@@H]1CC(=O)Nc2cccc(-c3ccc4c(c3)c(-c3cnn(C)c3)nn4C)c2N1"
tested_on = "Fibroblast"
result = "30%"

[[record]]
record_smiles = "COc1cc(OC2CCN(C(C)=O)CC2)ccc1C(=O)N1CCC(N2C(=O)OCc3ccccc32)CC1"
tested_on = "Fibroblast"
result = "28%"

[[record]]
record_smiles = "CN1CCC(C(=O)c2cccc(NC(=O)c3c(F)cc(F)cc3F)n2)CC1"
tested_on = "Fibroblast"
result = "22%"

[[record]]
record_smiles = "COCCn1c(C)c(C)s/c1=N\\C(=O)C1C(C)(C)C1(C)C"
tested_on = "Fibroblast"
result = "21%"

[[record]]
record_smiles = "Cc1cc(=O)n(C)c2cc(N3C(=O)CC[C@H](NS(=O)(=O)CC(C)C)[C@H]3c3ccc(Cl)cc3)ccc12"
tested_on = "Fibroblast"
result = "42%"


====

Here, each record is paired with measured Population Mitochondria Different-Phenotype (%) data.
Test system: HEK-293T
test_summary: Multiplex assay against HEK293T
Assay type: toxicity, cell-based
applied_conditions: human, 48 h, 1 µM, compound concentration 1 uM, replicate 2
measure: Population Mitochondria Different-Phenotype (%)

[[record]]
molecule = "C[C@@H]1CC(=O)Nc2cccc(-c3ccc4c(c3)c(-c3cnn(C)c3)nn4C)c2N1"
result = "30%"

[[record]]
molecule = "CC(F)(F)CN1CCOc2c(nn(-c3ccccc3Cl)c2-c2ccc(Cl)cc2)C1=O"
result = "23%"

[[record]]
molecule = "O=C(O)CCC/C=C\\CC1C(O)CC(O)C1/C=C/C(O)COc1cccc(Cl)c1 (centres undefined) [CLOPROSTENOL]"
result = "20%"

[[record]]
molecule = "Cc1cc(O)c(-c2ccc([C@@H](C)CN(C)C)cc2)c2c1[nH]c(=O)c1sccc12"
result = "96%"

[[record]]
molecule = "Cc1cc(=O)n(C)c2cc(N3C(=O)CC[C@H](NS(=O)(=O)CC(C)C)[C@H]3c3ccc(Cl)cc3)ccc12"
result = "20%"

[[record]]
molecule = "C[C@H](NC(=O)CNC(=O)c1cccc(Cl)c1)c1ccccc1"
result = "16%"

[[record]]
molecule = "CN(C)C/C=C/C(=O)Nc1ccc(C(=O)N2CCCC(Nc3ncc(Cl)c(-c4c[nH]c5ccccc45)n3)C2)cc1 (centres undefined)"
result = "95%"

[[record]]
molecule = "COc1cc(Nc2ncc3c(n2)-c2ccc(Cl)cc2C(c2c(F)cccc2OC)=NC3)ccc1C(=O)O [ALISERTIB]"
result = "27%"

[[record]]
molecule = "CC(C)C[C@H](CO)Nc1nc(S[C@@H](C)c2ccccc2)nc2nc(N)sc12 [AZD-8797]"
result = "24%"

[[record]]
molecule = "O=C(NCCNCC(O)COc1ccc(O)cc1)N1CCOCC1.O=C(NCCNCC(O)COc1ccc(O)cc1)N1CCOCC1.O=C(O)/C=C/C(=O)O (centres undefined) [XAMOTEROL FUMARATE]"
result = "18%"

[[record]]
molecule = "COc1c(Nc2ccc(S(C)(=O)=O)nc2C)ncnc1OC1CCN(C(=O)OC(C)C)CC1 [ADP-597]"
result = "23%"

[[record]]
molecule = "OCCCNc1cc(-c2ccnc(Nc3cccc(Cl)c3)n2)ccn1"
result = "84%"

[[record]]
molecule = "S=C(NCCCc1c[nH]cn1)NCCCN(Cc1ccc(Cl)c(Cl)c1)c1ccc(Br)cn1"
result = "32%"

[[record]]
molecule = "CN1CCN(c2ccc(Nc3c4ccccc4nc4ccccc34)cc2)CC1.Cl.Cl.O"
result = "36%"

[[record]]
molecule = "COCCCN1CCC(NC(=O)c2cc(Cl)c(N)c3c2OCC3)CC1 [PRUCALOPRIDE]"
result = "15%"

[[record]]
molecule = "COc1cc(OC2CCN(C(C)=O)CC2)ccc1C(=O)N1CCC(N2C(=O)OCc3ccccc32)CC1"
result = "23%"

[[record]]
molecule = "Cc1c(Cc2ccc3ccccc3n2)c2cc(F)ccc2n1CC(=O)O [TIMAPIPRANT]"
result = "25%"

[[record]]
molecule = "COCCn1c(C)c(C)s/c1=N\\C(=O)C1C(C)(C)C1(C)C"
result = "31%"

[[record]]
molecule = "COc1cc2nc(N3CCN(C(=O)c4ccco4)CC3)nc(N)c2cc1OC.Cl [PRAZOSIN HYDROCHLORIDE]"
result = "23%"

[[record]]
molecule = "Cn1cc(C(=O)OCC2CCN(CCNS(C)(=O)=O)CC2)c2ccccc21"
result = "23%"

[[record]]
molecule = "Cc1cc(-c2ccc3c(c2)CC[C@H]3N2CC3(CCN(C(=O)Cc4cn5cc(C)sc5n4)CC3)C2)ncn1 [PF-5190457]"
result = "21%"

[[record]]
molecule = "CCn1c(-c2nc3cc(C(=O)N4CCCC(N)C4)ccc3n2C)cc2ccccc21.Cl (centres undefined)"
result = "30%"

[[record]]
molecule = "CCCCC[C@H](O)/C=C/[C@H]1[C@H](O)CC(=O)[C@@H]1CCCCCCC(=O)O [ALPROSTADIL]"
result = "21%"

[[record]]
molecule = "Nc1nc(CC(=O)Nc2ccc(CCNC[C@H](O)c3ccccc3)cc2)cs1 [MIRABEGRON]"
result = "21%"

[[record]]
molecule = "Nc1nc(-c2ccco2)c2cnn(Cc3ccccc3F)c2n1"
result = "21%"

[[record]]
molecule = "O=c1nc2[nH]c3ccccc3nc-2c(=O)[nH]1 [ALLOXAZINE]"
result = "26%"

[[record]]
molecule = "COc1cc(C(=O)N2CC[C@@H](O)[C@@H](N)C2)cc2nc(-c3cc4ccccc4n3CC3CC3)n(C)c12.Cl"
result = "48%"

[[record]]
molecule = "CN1C[C@H](C(=O)N[C@]2(C)O[C@@]3(O)[C@@H]4CCCN4C(=O)[C@H](Cc4ccccc4)N3C2=O)C[C@@H]2c3cccc4[nH]cc(c34)C[C@H]21.CS(=O)(=O)O [DIHYDROERGOTAMINE MESYLATE]"
result = "23%"

[[record]]
molecule = "COc1ccc2c(c1OCc1ccccc1)C[C@@H](C(=O)O)N(C(=O)C(c1ccccc1)c1ccccc1)C2 [OLODANRIGAN]"
result = "18%"

